These data points were gathered from patent US20240067625A1.

ASSAY TARGET: UniProtKB Q9Y466
Sequence (Q9Y466 155-383): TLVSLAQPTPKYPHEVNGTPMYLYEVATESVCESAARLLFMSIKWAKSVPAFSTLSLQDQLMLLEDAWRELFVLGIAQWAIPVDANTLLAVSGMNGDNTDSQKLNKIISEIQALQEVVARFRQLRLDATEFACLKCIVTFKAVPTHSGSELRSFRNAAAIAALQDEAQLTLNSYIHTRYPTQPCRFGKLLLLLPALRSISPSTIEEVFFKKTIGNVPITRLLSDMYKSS
MEASUREMENT DESCRIPTION: ALPHA screen assay for TLX LBD and coactivator peptide recruitment
CONDITIONS: Table 3
READOUT KIND: log10 of EC50 (log10 of the value in nM)

- COMPOUND: "COC(=O)c1cccc(CN2CCN(C(=O)c3cccnc3NCCC(C)C)CC2)c1 [Compound 56]"
  ASSAY TARGET: "UniProtKB Q9Y466"
  log10 of EC50: -1.35
- COMPOUND: "COC(=O)C[C@H]1[C@H](C)N(Cc2ccccc2)CCN1C(=O)c1cccnc1NCCC(C)C [Compound 70]"
  ASSAY TARGET: "UniProtKB Q9Y466"
  log10 of EC50: -2.31
- COMPOUND: "COC(=O)C[C@@H]1CN(C(=O)c2cccnc2NCCC(C)C)C[C@@H](C)N1Cc1ccccc1 [Compound 64]"
  ASSAY TARGET: "UniProtKB Q9Y466"
  log10 of EC50: -2.07
- COMPOUND: "COC(=O)C[C@@H]1[C@H](C)N(Cc2ccccc2)CCN1C(=O)c1cccnc1NCCC(C)C [Compound 69]"
  ASSAY TARGET: "UniProtKB Q9Y466"
  log10 of EC50: -2.09
- COMPOUND: "CC(C)CCNc1ncccc1C(=O)N1CCN(Cc2ccc3cnccc3c2)C[C@@H]1C [Compound 40]"
  ASSAY TARGET: "UniProtKB Q9Y466"
  log10 of EC50: -1.28
- COMPOUND: "COC(=O)c1ccccc1CN1CCN(C(=O)c2cccnc2NCCC(C)C)CC1 [Compound 55]"
  ASSAY TARGET: "UniProtKB Q9Y466"
  log10 of EC50: -1.39
